Please provide measured XC50 for the entries that follow.
# Test system: Plasmodium falciparum
# method_description: GSK_TCMDC: Inhibition of Plasmodium falciparum 3D7 in whole erythrocytes, using parasite LDH activity as an index of growth.
# Type: functional, organism-based
# measurement_setup: Plasmodium falciparum, 3D7
Numeric answer only, unit µM assumed.

If you can, please state the reported XC50 value of CCc1sc(N2CCN(C)CC2)nc1C(=O)Nc1ccc(F)cc1C(F)(F)F .
0.177

Queued: CCCN1CCN(CCCCNc2c3ccccc3nc3ccccc23)CC1
0.409

Queued: O=C(N/C(=C/c1cccc([N+](=O)[O-])c1)c1nc2ccccc2[nH]1)c1cccc(Br)c1
0.616

Queued: COc1ccccc1NC(=O)CSc1nc2cccnc2n1-c1ccccc1OC
0.362

Queued: OCC1CCN(Cc2ccc(-c3ccc(-c4nc5cc(C(F)(F)F)ccc5[nH]4)s3)cc2)CC1
0.477

Queued: CCCc1cc(O)c2c3c(c(=O)oc2c1)CN(C)CC3
0.873

Queued: COC(=O)c1cccc(CNCc2ccc(-c3ccc(-c4nc5ccccc5[nH]4)s3)cc2)c1
0.289

Queued: Cc1cc2ccccc2n1CC(=O)N1CC(C(=O)N2CCCCC2)Oc2ccccc21 (centres undefined)
0.899

Queued: O=C(Nc1cccc(-c2nn3ccccc3c2-c2ccnc(Nc3ccc(C(=O)N4CCOCC4)cc3)n2)c1)c1c(F)cccc1F
0.383

Queued: O=c1n(CC2CCCCC2)c2cc(Cl)cc(OCCNc3ccncc3)c2n1CC1CCCCC1
0.593

Queued: CC1CCCCN1CCCNC(=O)c1cccc(-c2cc3cc(Cl)c(Cl)cc3[nH]2)c1 (centres undefined)
0.881

Queued: CCC(=O)c1ccc(-c2ccc(=O)n(CC(=O)N(CCN(CC)CC)Cc3ccc(-c4ccc(C(F)(F)F)cc4)cc3)n2)cc1
0.715

Queued: c1ccc(N2CCN(c3cc(-c4cccnc4)nc(-c4ccncc4)n3)CC2)nc1
0.757

Queued: COc1ccccc1CCNc1nc(C)cc(NCCC(=O)NCCOc2ccccc2)n1
1.37

Queued: Cc1cc(-c2cccc(CNC3CCN(C)CC3)c2)ccc1S(=O)(=O)NC1CCC1
0.731

Queued: Cc1nn(CC(C)C)c2sc(C(=O)N3CCN(S(=O)(=O)c4ccc(C#N)cc4)CC3)cc12
0.739

Queued: O=C(COc1ccc(Cl)c(Cl)c1)NCCCCCN1CCCN(C(=O)Nc2cc(Cl)cc(Cl)c2)CC1
1.14

Queued: COc1ccc2ncc(F)c(CCN3CC[C@H](NCc4cc(C#N)c5c(c4)OCCO5)[C@H](O)C3)c2c1
0.885

Queued: COc1ccc(C(C(=O)NC2CCN(C[C@H](O)c3ccnc4ccc(OC)cc34)CC2)N2CCN(Cc3ccccc3)CC2)cc1 (some centres undefined)
0.149
